# System: RXF 393 renal
# Assay Explanation: NCI tumour cell line growth inhibition, 48 h
Provide the recorded TGI for the entries that follow.

## Task Look up RXF 393 renal data: TGI of "Cc1nc2ccccc2c(-n2cccn2)c1CCn1cccn1" , then report it.
## Result > 100 µM

## Task Please report the measured TGI for "CC12c3c4ccc(C=O)c3Oc3ccc(C=O)c(c31)Oc1ccc(C=O)c(c12)O4" tested on RXF 393 renal.
## Result > 25 µM

## Task Provide TGI, recorded with RXF 393 renal, of "O=C1C=C(Nc2ccc(Cl)cc2C(=O)c2ccccc2)c2ccccc2C1=O"
## Result > 100 µM

## Task With RXF 393 renal as the test system, provide measured TGI for this compound: "COc1ccc(CC(N)=O)cc1OC"
## Result > 1250 µM

## Task Param request: TGI | system RXF 393 renal | item "CCOC(=O)Nc1c(C)nc2ccccn12"
## Result > 100 µM

## Task Output reported TGI of the compound CCOc1ccc(NC(=O)CC2SC(=Nc3ccc(C)cc3C)NC2=O)cc1 (stereo unspecified) on RXF 393 renal.
## Result > 100 µM

## Task Supply TGI measured with RXF 393 renal for Cc1cc(OP2(=O)NCc3ncccc3O2)ccc1Cl (stereo unspecified) .
## Result > 100 µM

## Task Provide RXF 393 renal TGI reading for c1ccc(C2=NOC(c3ccccc3)N2C23CC4CC(CC(C4)C2)C3)cc1 (stereo unspecified) .
## Result > 10 µM

## Task Find the measured TGI of CC1(C)C=CC(=O)C(O)C(C)(C)C1=O (stereo unspecified) with RXF 393 renal as test system.
## Result > 100 µM

## Task Quote RXF 393 renal TGI for entry "Cc1ccsc1/C=N/Nc1cnccn1" .
## Result > 100 µM

## Task Specify TGI for "C[N+](C)(C)CC(=O)N/N=C(/Cc1cc(=O)oc2cc(O)ccc12)C(=O)Nc1ccc(Cl)cc1" , system RXF 393 renal.
## Result > 100 µM

## Task Quote RXF 393 renal TGI for entry O=C(CC(=O)Nc1ccccc1)NNC(Sc1ccccc1)c1cc(N=Nc2ccc(Br)cc2)ccc1O (stereo unspecified) .
## Result > 10 µM

## Task Enter recorded TGI with RXF 393 renal for N#CC(c1ccccc1)N(CCOCCOCCN(C(=O)c1ccccc1)C(C#N)c1ccccc1)C(=O)c1ccccc1 (stereo unspecified) here.
## Result > 100 µM

## Task Find the measured TGI of "COCOCCC#CCO" with RXF 393 renal as test system.
## Result > 100 µM

## Task State, for RXF 393 renal, measured TGI of the compound listed here: "O=[N+]([O-])c1ccccc1N=Nc1c(O)[nH]c2c(Cl)cc(Cl)cc12"
## Result > 59.8 µM

## Task Report the value of TGI obtained on RXF 393 renal for "COc1ccc(/C=N/NC(=O)c2ccc(O)c(CN(C)C)c2)cc1" .
## Result > 100 µM

* * *

# Test system: K-562 leukemia
# Assay Explanation: NCI tumour cell line growth inhibition, 48 h
Where a SMILES comes first, the peptide text is derived from it. The star is where a group is joined. Palmitoyl = CCCCCCCCCCCCCCCC(=O)*
Could you please report measured GI50 for the items listed next?

## Task Return GI50 for the following compound: CCCCCCCCCCCCCCCC(=O)N1CCCC1C(=O)NCC(=O)NC(Cc1ccccc1)C(=O)N1CCCC1C(=O)NC(CO)C(=O)NC(Cc1ccc(O)cc1)C(=O)NC(CCCCN)C(=O)NC(CC(C)C)C(=O)NC(CCCN=C(N)N)C(=O)N1CCCC1C(=O)NCC(N)=O (stereo unspecified) (Palmitoyl-PGFPSYKLRPG-NH2; configuration not given here)
## Result 14.3 µM

## Task For the compound "Cc1nc2c(Br)cc(Br)cc2c(=O)n1-c1nnc(-c2cccc(Cl)c2Cl)c(N)n1" , report GI50.
## Result 3.4 µM

## Task Entry "CNCCCNc1ccnc2cc(Cl)ccc12" needs its GI50 filled in; supply it.
## Result 15.2 µM

## Task Give the reported value of GI50 for this record: "COC(=O)C1=CN(CC2=CC(=O)C(C)=CC2=O)C=C(C(=O)OC)C1c1ccccc1OC"
## Result 0.495 µM

## Task Entry "CCOC(=O)c1c(C)c2c(n1Cc1ccccc1)CSCC2=O" needs its GI50 filled in; supply it.
## Result 21.7 µM

## Task Retrieve GI50 measured for C=C(C)C(C1C=C(CCC(C=O)=C(C)C)C(=O)O1)C1(OC)C=C(C)C(=O)O1 (stereo unspecified) and print it.
## Result 73.2 µM
